Quick reference for Ki among some compounds
TARGET ENTITY: purified Human plasma kallikrein (Homo sapiens, UniProt P03952)
Construct: yields a heavy chain (371 amino acids) and a light chain (248 amino acids)
Sequence (P03952 391-638 limits assumed): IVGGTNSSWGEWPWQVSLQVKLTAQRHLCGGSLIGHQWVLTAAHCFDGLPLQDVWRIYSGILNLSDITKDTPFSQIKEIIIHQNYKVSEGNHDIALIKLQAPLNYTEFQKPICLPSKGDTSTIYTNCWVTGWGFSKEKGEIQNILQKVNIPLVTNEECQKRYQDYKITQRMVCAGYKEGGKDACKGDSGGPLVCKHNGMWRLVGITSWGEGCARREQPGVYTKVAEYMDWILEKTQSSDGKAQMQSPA
Sequence (P03952 20-390 partner limits assumed): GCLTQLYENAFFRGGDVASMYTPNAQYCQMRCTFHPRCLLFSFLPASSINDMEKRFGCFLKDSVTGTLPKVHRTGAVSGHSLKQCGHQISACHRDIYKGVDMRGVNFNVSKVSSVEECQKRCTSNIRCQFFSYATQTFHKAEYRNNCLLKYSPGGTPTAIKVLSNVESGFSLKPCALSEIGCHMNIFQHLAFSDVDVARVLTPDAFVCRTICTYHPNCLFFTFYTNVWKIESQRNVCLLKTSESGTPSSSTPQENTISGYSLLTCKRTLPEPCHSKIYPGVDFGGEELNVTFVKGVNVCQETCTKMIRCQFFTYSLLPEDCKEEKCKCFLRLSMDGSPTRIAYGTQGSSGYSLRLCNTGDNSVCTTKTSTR
TEST: Kallikrein Assay
CONDITIONS USED: purified Human plasma kallikrein 0.5 nM; substrate Acetyl-K-P-R-AFC; 50 mM HEPES pH 7.4; Ki from IC50 by Cheng Prusoff equation; read-out: Hu P. Kallikrein
I only need the number, in nM, no unit after it.

Worked examples follow.
COC(=O)Nc1ccc2c(c1)NC(=O)CCCC[C@@H](C(=O)N1CC[C@@]3(C1)OC(=O)Nc1ccc(Cl)c(F)c13)c1nc-2c(C)[nH]1 [Example 13b] | 1.11
CCOC(=O)C1CCCCC(C(=O)N2CCC[C@@]3(C2)OC(=O)Nc2ccc(Cl)c(F)c23)c2nc(c[nH]2)-c2ccc(NC(=O)OC)cc2N1 (single isomer, unassigned) [Example 32b] | 1.42

We next turn to a different compound, shown below.
For COC(=O)Nc1ccc2c(c1)NC(=O)CCCCC(C(=O)N1CC[C@@]3(C1)OC(=O)Nc1ccc(Cl)c(F)c13)c1nc-2c(Cl)[nH]1 (mixture of isomers) [Example 9] , write its Ki.
0.57
